test system: α-smooth muscle actin (aSMA) positive LL29 cells; experiment: Inhibition of the fibrotic process: αSMA staining in TGF-β1 treated LL29 fibroblasts from IPF patients; conditions: Homo sapiens, Fibroblast, read-out: percentage in parentheses after EC50 >10
Rule: inhibition at 10 µM under 30% gives not fulfilled, otherwise fulfilled.

Example results:
* CN1CCCN(CC(=O)Nc2cc3nc(-c4cnn(C)c4)ccc3cn2)CC1 [Compound 105] | not fulfilled
* Cn1cc(-c2ccc3cnc(NC(=O)[C@H]4CC[C@H](N5CCOCC5)CC4)cc3n2)cn1 [Compound 5] | not fulfilled
* O=C(Nc1cc2nc(-c3cccnc3)ccc2cn1)C1CC1 [Compound 764] | not fulfilled
* CO[C@H]1CC[C@H](C(=O)Nc2cc3cc(-c4nnc(C)s4)ncc3cn2)CC1 [Compound 4332] | not fulfilled

### Prompt Is the recorded value of inhibition at 10 µM equal to or greater than 30% for this molecule? CN1CCN(Cc2cccc(C(=O)Nc3ncc4ccc(-c5cnn(C)c5)cc4n3)c2)CC1 [Compound 1079]
### Response not fulfilled

### Prompt Is the recorded value of inhibition at 10 µM equal to or greater than 30% for this molecule? Cc1ncc(-c2ccc3cnc(NC(=O)C(C)N4CCCCC4)nc3c2)n1C (centres unmarked) [Compound 4576]
### Response fulfilled

### Prompt Is the recorded value of inhibition at 10 µM equal to or greater than 30% for this molecule? Cc1ncc(-c2cnc3cnc(NC(=O)c4ccnc(N5CCN(C)CC5)c4)cc3c2)s1 [Compound 3363]
### Response fulfilled

### Prompt Is the recorded value of inhibition at 10 µM equal to or greater than 30% for this molecule? CC(C)CN1CCC(CC(=O)Nc2ncc3ccc(-c4cnn(C)c4)cc3n2)C1 (centres unmarked) [Compound 1029]
### Response not fulfilled

### Prompt Is the recorded value of inhibition at 10 µM equal to or greater than 30% for this molecule? Cc1ncc(-c2ccc3cnc(NC(=O)N4CCC(N5CCOCC5)CC4)nc3c2)o1 [Compound 1472]
### Response fulfilled

### Prompt Is the recorded value of inhibition at 10 µM equal to or greater than 30% for this molecule? CN(C)C1CCN(c2cc(C(=O)Nc3cc4cc(-c5cn(C)nn5)ncc4cn3)ccn2)CC1 [Compound 4003]
### Response not fulfilled

### Prompt Is the recorded value of inhibition at 10 µM equal to or greater than 30% for this molecule? Cn1cc(-c2ccc3cnc(NC(=O)CC4CNCCO4)nc3c2)cn1 (centres unmarked) [Compound 994]
### Response not fulfilled

### Prompt Is the recorded value of inhibition at 10 µM equal to or greater than 30% for this molecule? CC(C)n1cc(C(=O)Nc2cc3cc(-c4cncc(NC5CCN(C)CC5)n4)cnc3cn2)cn1 [Compound 3627]
### Response fulfilled

### Prompt Is the recorded value of inhibition at 10 µM equal to or greater than 30% for this molecule? Cc1nnc(-c2cnc3cnc(NC(=O)c4ccnc(SC5CCN(C)CC5)c4)cc3c2)s1 [Compound 3474]
### Response fulfilled

### Prompt Is the recorded value of inhibition at 10 µM equal to or greater than 30% for this molecule? O=C(Nc1ncc2ccc(-c3cncs3)cc2n1)C1CCN(C2COC2)CC1 [Compound 1523]
### Response not fulfilled

### Prompt Is the recorded value of inhibition at 10 µM equal to or greater than 30% for this molecule? Cn1cnnc1-c1cnc2cnc(NC(=O)C3CCN(CCC(F)(F)F)CC3)cc2c1 [Compound 3111]
### Response fulfilled

### Prompt Is the recorded value of inhibition at 10 µM equal to or greater than 30% for this molecule? Cc1ncc(C(=O)Nc2ncc3ccc(-c4cnc(C)n4C)cc3n2)s1 [Compound 1353]
### Response fulfilled

### Prompt Is the recorded value of inhibition at 10 µM equal to or greater than 30% for this molecule? CN1CC(COc2cncc(-c3ccc4cnc(NC(=O)c5ccc(F)cc5)nc4c3)n2)C1 [Compound 4595]
### Response not fulfilled

----------
molecules and their reported EC50
molecular target: UniProtKB Q13627; experiment: DYRK1A kinase activity (Ser/Thr 18 peptide Z-lyte FRET assay); type: biochemical; conditions: recombinant DYRK1A, 30 μM ATP, one hour at room temperature
The response must be a number in nM with no trailing unit.

Some molecules with known EC50 results, for comparison:
* CN1CCN(c2cc(C(=O)Nc3cc4cc(-c5cncs5)ncc4cn3)ccn2)CC1 [Compound 4257] | 6
* CN1CCC(n2cc(C(=O)Nc3cc4nc(-c5cncc6[nH]ccc56)ccc4cn3)cn2)CC1 [Compound 896] | 5
* O=C(Nc1cc2cc(-c3cnco3)ncc2cn1)C1CCN(C(=O)CN2CCCC2)CC1 [Compound 4159] | 4

Entry Cn1cc(-c2cc3cc(NC(=O)C4CCN(CC5(C(F)(F)F)CC5)CC4)ncc3cn2)nn1 [Compound 3974] — recorded EC50 = 184

----------
compounds and their reported EC50
system: Tau phosphorylation at Ser396 (pSer396); assay: Tau phosphorylation at Ser396 (pSer396) in SH-SY5Y cells, ELISA / western blot; format: cell-based, human; conditions: Homo sapiens; SH-SY5Y cells, overnight (16-18 h); read-out: pSer396 Tau EC50;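 further: decrease in pSer396 Tau measured in lysates of treated cells by colorimetric ELISA or chemiluminescent western blot, same pSer396 antibody for both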
The response must be a number in nM with no trailing unit.

* Cn1cc(-c2cc3cc(NC(=O)[C@H]4CCCN4)ncc3cn2)cn1 | 156
* Cc1ncc(-c2ccc3cnc(NC(=O)[C@H]4CC[C@H](N(C)C)CC4)cc3n2)s1 | 2400
* Cn1cc(-c2cc3cc(NC(=O)C4CCN(Cc5ncccn5)CC4)ncc3cn2)cn1 | 398
* Cn1cncc1-c1cnc2cnc(NC(=O)C3CCC(F)(F)CC3)cc2c1 | 2430
* CN1CCN(c2cc(C(=O)Nc3ncc4ccc(-c5cncs5)cc4n3)ccn2)CC1 | 1180
* Cn1cc(-c2cc3cc(NC(=O)C4CC4)ncc3cn2)cn1 | 21

Now turn to the next compound.
Entry `Cc1ncc(-c2ccc3cnc(NC(=O)C4CCN(C(=O)CN5CCCC5)CC4)cc3n2)s1` — recorded EC50 = 2100

----------
system: α-smooth muscle actin (aSMA) positive LL29 cells; assay: Inhibition of the fibrotic process: αSMA staining in TGF-β1 treated LL29 fibroblasts from IPF patients; details: Homo sapiens, Fibroblast, 96 h
measurement label: pEC50
Please keep in mind that pEC50 is minus log10 of the molar concentration; only the number is needed.

Some molecules with known pEC50 results, for comparison:
• Cn1ncc(-c2cnc3cnc(NC(=O)C4CC5(C4)CN(CCF)C5)cc3c2)c1CN1CCCCC1 = 5.00
• CN1CCC(n2cc(C(=O)Nc3cc4cc(-c5cnn(C)c5)cnc4cn3)cn2)CC1 = 5.29
• CN1CCN(c2cc(C(=O)Nc3ncc4ccc(-c5cnc(N)s5)cc4n3)ccn2)CC1 = 6.04
• C[C@H]1CCCN1CC(=O)Nc1cc2nc(-c3cnn(C)c3)ccc2cn1 = 5.14

Entry `Cc1cn2c(n1)CN(C(=O)Nc1cc3nc(-c4cnc(C)o4)ccc3cn1)CC2` under α-smooth muscle actin (aSMA) positive LL29 cells had pEC50 of 5.60

Entry `CN1CCC(n2cc(C(=O)Nc3cc4nc(-c5cnn(C)c5)ccc4cn3)cn2)CC1` under α-smooth muscle actin (aSMA) positive LL29 cells had pEC50 of 6.50

----------
target: DYRK1A kinase (Homo sapiens); experiment: DYRK1A kinase activity (Ser/Thr 18 peptide Z-lyte FRET assay); conditions: recombinant DYRK1A, 30 μM ATP, one hour at room temperature;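 further: kinase activity read as coumarin/fluorescein emission ratio after development step, with unphosphorylated and phosphorylated peptide forms setting 0% and 100% controls, values from dose-response curves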
measurement label: pEC50
Please keep in mind that pEC50 is minus log10 of the molar concentration; only the number is needed.

* CC(F)(F)CN1CCC(C(=O)Nc2cc3cc(-c4cnco4)cnc3cn2)CC1 | 7.80
* Cn1cncc1-c1ccc2cnc(NC(=O)c3cccc(CN4CCCC4)c3)nc2c1 | 8.30
* Cn1nnnc1-c1ccc2cnc(NC(=O)C3CCN(CCC(F)(F)F)CC3)nc2c1 | 5.85
* CNC(=O)c1ccc(C(=O)Nc2ncc3ccc(-c4cn(C)nn4)cc3n2)cn1 | 8.15
* Cn1ncc(-c2cc3cc(NC(=O)c4ccnc(N5CCOCC5)c4)ncc3cn2)c1CN1CCOCC1 | 8.22

Entry `CN1CCN(c2cccc(C(=O)Nc3ncc4ccc(-c5cnn(C)c5)cc4n3)c2)CC1` — recorded pEC50 = 8.10

Entry `CN1CCc2ccc(C(=O)Nc3cc4nc(-c5cnn(C)c5)ccc4cn3)cc2C1` — recorded pEC50 = 8.05

Entry `Cn1cc(-c2cc3cc(NC(=O)C4CCN(CCC(F)(F)F)CC4)ncc3cn2)cn1` — recorded pEC50 = 8.70

----------
compounds and their reported pEC50
system: α-smooth muscle actin (aSMA) positive LL29 cells; assay: Inhibition of the fibrotic process: αSMA staining in TGF-β1 treated LL29 fibroblasts from IPF patients; conditions: Homo sapiens, Fibroblast, 96 h
Please keep in mind that pEC50 is minus log10 of the molar concentration; only the number is needed.

Some compounds with known pEC50 results, for comparison:
- O=C(Nc1cc2nc(-c3cncs3)ccc2cn1)[C@H]1CC[C@H](CN2CC(F)C2)CC1: 6.19
- O=C(Nc1cc2nc(-c3cncs3)ccc2cn1)c1ccncc1: 5.52
- Cc1ncc(-c2ccc3cnc(NC(=O)C(C)N4CCCC4)cc3n2)n1C (centres unmarked): 5.96
- CN1CCC(Oc2ccc(C(=O)Nc3ncc4ccc(-c5cnn(C)c5)cc4n3)cc2)CC1: 5.06
- CN1CCN(c2cc(C(=O)Nc3ncc4ccc(-c5ccc(N)nc5)cc4n3)ccn2)CC1: 5.29

Entry `O=C(Nc1cc2nc(-c3cncc(OCC4CNC4)n3)ccc2cn1)c1ccc(F)cc1` under α-smooth muscle actin (aSMA) positive LL29 cells had pEC50 of 5.40

Entry `Cn1cc(-c2cnc3cnc(NC(=O)c4ccc5ccoc5c4)cc3c2)cn1` under α-smooth muscle actin (aSMA) positive LL29 cells had pEC50 of 5.65

Entry `Cn1cc(-c2cc3cc(NC(=O)C4CC4)ncc3cn2)cn1` under α-smooth muscle actin (aSMA) positive LL29 cells had pEC50 of 7.01

Entry `CN1CCC(c2nc(C(=O)Nc3cc4nc(-c5cnn(C)c5)ccc4cn3)co2)CC1` under α-smooth muscle actin (aSMA) positive LL29 cells had pEC50 of 5.85

Entry `CC(C)Oc1ccc(C(=O)Nc2cc3cc(-c4cnc5n4CCNC5)ncc3cn2)cc1` under α-smooth muscle actin (aSMA) positive LL29 cells had pEC50 of 5.45

Entry `CC(C)OC(=O)N1CCC(n2cc(C(=O)Nc3cc4cc(-c5cnn(C)c5)cnc4cn3)cn2)CC1` under α-smooth muscle actin (aSMA) positive LL29 cells had pEC50 of 5.48
